So I've got a bunch of molecules here, and I need their inhibition values.
target: Polyadenylate-binding protein 1 (Homo sapiens); assay: PABP poly(A) RNA binding inhibitors, primary screen, biochemical, fluorescence polarization, uHTS (AID 2014); conditions: at 35 µM, hits give high values;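 further: calls also rest on retests at 20 µM and on dose response follow-up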
Out of some 290,000 compounds screened, about 3,000 (1%) were called active. The full list was thinned out, with actives kept by preference.
One number for each entry, in %.

Please review the entries below; each comes with its answer.
molecule | result-unit | inhibition
Cc1ccc(-n2c(O)c(C=Nc3ccc(S(=O)(=O)Nc4ncccn4)cc3)c3ccccc3c2=O)cc1C | % | -8.1
Cc1ccc(S(=O)(=O)N(CC(O)CN2CCCCC2)c2cccc([N+](=O)[O-])c2)cc1 (stereo not given) | % | -2.5
COc1ccc(Cc2nc3ccc(C(=O)NCC4CCOCC4)cc3o2)cc1OC | % | 11.1

Give me inhibition for each of these molecules, listed below.
1. C/C(=C\c1ccco1)C1Nc2cccc3cccc(c23)N1
2. COc1ccc(CN2CCCC(CNC(=O)c3ccc(F)cc3)C2)cc1OC (stereo not given)
3. CCOC(=O)C1(CCOc2ccccc2)CCN(Cc2cc(OC)cc(OC)c2)CC1
4. COc1ccc(C(=O)NC2=NCCS2)c(OC)c1

Reply |
1: 116; 2: 79.6; 3: 10.8; 4: -7.6

The following molecules each have a reported value; give each one's inhibition.
1. O=C(CCCN1C(=O)/C(=C/c2ccccc2)SC1=S)Nc1ccc(O)cc1
2. O=C(NCCCN1CCOCC1)c1cc(-c2ccccc2F)no1
3. O=C(CCCN1C(=O)/C(=C/c2ccco2)SC1=S)Nc1ccccc1

Reply |
1: -7.7; 2: -8; 3: 17.5
